Target: T1, HER2 on the surface of N87 gastric cancer cells (human, UniProt P04626 23-1255)
T1 construct: whole, on cells; also called cell surface HER2
Assay: flow cytometry on N87 cells, 0.5 nM scFv detected with AL1-RFP
QUANTITY MEASURED: MFI
Give the figure by itself; no unit, no explanation.

So, 30CHS-41 source scFv (scFv) DIQMTQSPSSLSASVGDRVTITCKSNQNLLDSGHQRTYLNWYQQKPGKAPKLLIYHTSLLYSGVPSRFSGSGSGTDFTLTISSLQPEDFATYYCSQTFRHPGTFGQGTKVEIKREVQLVESGGGLVQPGGSLRLSCKASGYTFTHWGMHWVRQAPGKGLEWVARINPYYGLTHYADSVKGRFTISADTSKNTAYLQMNSLRAEDTAVYYCARGHWLDYWGQGTLVTVSSASAAA ? Its MFI was 153

Form field MFI, entry 31YCM#3 source scFv (scFv) DIQMTQSPSSLSASVGDRVTITCKSNQNLLISGNQWTFLNWYQQKPGKAPKLLIYDVSRLYSGVPSRFSGSGSGTDFTLTISSLQPEDFATYYCYQGSDFPGTFGQGTKVEIKREVQLVESGGGLVQPGGSLRLSCKASGYTFARSGMHWVRQAPGKGLEWVAGISPNYGLTHYADSVKGRFTISADTSKNTAYLQMNSLRAEDTAVYYCARGFGVLDYWGQGTLVTVSSASAAA : 177

MFI reported for this binder 35WYK-16 source scFv (scFv) DIQMTQSPSSLSASVGDRVTITCKSNQNLLLSNGRTFLYWYQQKPGKAPKLLIYDVSDLYSGVPSRFSGSGSGTDFTLTISSLQPEDFATYYCFQGNNFPYTFGQGTKVEIKREVQLVESGGGLVQPGGSLRLSCKASGYTFGTSWMHWVRQAPGKGLEWVAGITPYYGLTFYADSVKGRFTISADTSKNTAYLQMNSLRAEDTAVYYCARGNLDYWGQGTLVTVSSASAAA : 299

Memo: 35CPT-9 source scFv (scFv) DIQMTQSPSSLSASVGGRVTITCKSNQNLLDSYGRTYLYWYQQKPGKAPKLLISGTSGLYSGVPSRFSGSGSGTDFTLTISSLQPEDFATYYCFQGYDYPFTFGQGTKVEIKREVQLVESGGGLVQPGGSLRLSCKASGYTFGDYGMHWVRQAPGKGLEWVAHIAPNDGITHYADSVKGRFTISADTSKNTAYLQMNSLRAEDTAVYYCARGYGWYDHVMDYWGQGTLVTVSSASAAA , reported MFI: 287
